Recorded IC50 for the following compounds
# Assayed System: CLK1 (Homo sapiens, UniProt P49759)
# Construct: full-length human kinases from Carna Biosciences; purchased Carna Biosciences 04-126
# Sequence (P49759 1-526 isoform P49759-3): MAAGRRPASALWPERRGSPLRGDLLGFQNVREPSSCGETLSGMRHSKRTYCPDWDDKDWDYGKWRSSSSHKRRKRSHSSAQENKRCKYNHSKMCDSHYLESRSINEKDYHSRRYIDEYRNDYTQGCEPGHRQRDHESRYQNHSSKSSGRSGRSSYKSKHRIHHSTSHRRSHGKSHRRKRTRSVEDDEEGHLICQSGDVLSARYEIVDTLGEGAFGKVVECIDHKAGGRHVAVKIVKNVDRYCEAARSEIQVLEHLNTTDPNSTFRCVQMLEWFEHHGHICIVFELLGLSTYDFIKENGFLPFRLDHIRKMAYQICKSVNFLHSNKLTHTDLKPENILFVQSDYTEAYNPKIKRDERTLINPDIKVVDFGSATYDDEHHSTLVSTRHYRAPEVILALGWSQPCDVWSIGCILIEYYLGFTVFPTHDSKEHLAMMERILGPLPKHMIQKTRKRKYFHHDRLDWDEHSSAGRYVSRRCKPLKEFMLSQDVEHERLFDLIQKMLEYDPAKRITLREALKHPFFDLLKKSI
# Protocol: Kinase TR-FRET assay, CLK1
# Format: biochemical
Express the result in µM but write the number alone.

These recorded examples may help you get a feel for the data.
structure=COc1cccc(F)c1CNc1nc(C)nc2[nH]cc(-c3cc(N)nc(N)c3)c12 meas_value=0.0136
structure=Cc1nc(NC2Cc3ccccc3C2)c2c(-c3ccnc(N)c3)c[nH]c2n1 meas_value=0.0549
structure=Cc1nc(NCc2c(F)cccc2F)c2c(-c3ccnc(N)n3)c[nH]c2n1 meas_value=0.0238
structure=Cc1nc(NCc2c(F)cccc2F)c2c(-c3cc(N)nc(N)c3)c[nH]c2n1 meas_value=0.0172
structure=COc1cccc(-c2nc(C)nc3[nH]cc(-c4ccnc(N)c4)c23)c1 meas_value=0.042
structure=Cc1nc(N2CCc3ccccc3C2)c2c(-c3cc(N)nc(N)c3)c[nH]c2n1 meas_value=0.0162

Kindly state the measured IC50 obtained for "Cc1nc(NCc2ncccc2F)c2c(-c3ccnc(N)c3)c[nH]c2n1" with CLK1 (Homo sapiens, UniProt P49759). 0.0237

Try this compound next: "Cc1nc(OCc2cc(C)on2)c2c(-c3ccncc3)c[nH]c2n1" 0.0328

Try this compound next: "Cc1nc(NCc2ncccc2C(F)(F)F)c2c(-c3ccnc(N)c3)c[nH]c2n1" 0.0293

====

# Assayed System: DYRK1A (Homo sapiens)
# Construct: full-length human kinases from Carna Biosciences; purchased Carna Biosciences 04-130
# Protocol: Kinase TR-FRET assay, DYRK1A
# Type: biochemical
Recorded log10(IC50) for the following compounds
Record value = log10 of IC50 given in µM.

These recorded examples may help you get a feel for the data.
structure=Cc1cc(-c2c[nH]c3nc(C)nc(NCc4ccsc4)c23)ccn1 assayed_system="DYRK1A (Homo sapiens)" meas_value=-0.70
structure=Cc1nc(NCc2c(Cl)cccc2Cl)c2c(-c3ccnc(N)c3)c[nH]c2n1 assayed_system="DYRK1A (Homo sapiens)" meas_value=-2.21
structure=Nc1cc(-c2c[nH]c3nc(C#CC4CC4)cc(NCc4c(F)cccc4F)c23)ccn1 assayed_system="DYRK1A (Homo sapiens)" meas_value=-1.84

Any idea what its log10(IC50) is? The compound is "Cc1nc(N2C[C@@H](C)O[C@@H](C)C2)c2c(-c3ccnc(N)c3)c[nH]c2n1" -1.28

Try this compound next: "Cc1nc(NCc2c(C)cccc2Cl)c2c(-c3ccnc(N)c3)c[nH]c2n1" -1.67

====

# Assayed System: His-TEV-DYRK1A Kinase domain (aa127-485) (Homo sapiens)
# Construct: His-TEV-DYRK1A Kinase domain (aa127-485); His (N); TEV cleavage site (N)
# Protocol: Kinase ADP assay (ADP Hunter Plus)
# Type: biochemical
Define the label as Met when IC50 is strictly less than 0.04 µM and as Not met in all remaining cases.

Quick check: IC50 of Cc1nc(-c2ccc3c(c2)OCO3)c2c(-c3ccnc(N)n3)c[nH]c2n1 [Example 209] under 0.04 µM? Met

Try this molecule next: Cc1nc(-c2ccc3c(c2)OCO3)c2c(-c3cc(N)nc(N)c3)c[nH]c2n1 [Example 192] Met

Try this molecule next: COc1ccc(COc2nc(C)nc3[nH]cc(-c4ccnc(N)c4)c23)cc1 [Example 26] Met

Try this molecule next: Cc1nc(NC(C)c2c(F)cccc2F)c2c(-c3ccnc(N)c3)c[nH]c2n1 (stereo not drawn) [Example 82] Not met

Try this molecule next: Cc1nc(-c2cc3ccccc3s2)c2c(-c3ccnc(N)c3)c[nH]c2n1 [Example 182] Met

Try this molecule next: Cc1nc(NCc2ncccc2C)c2c(-c3ccnc(N)c3)c[nH]c2n1 [Example 60] Met

Try this molecule next: Cc1nc(NCC2CC2)c2c(-c3ccnc(N)c3)c[nH]c2n1 [Example 65] Not met

Try this molecule next: Cc1nc(C#CC2CC2)c2c(-c3ccnc(N)c3)c[nH]c2n1 [Example 198] Met

Try this molecule next: Cc1nc(N2C[C@@H](C)O[C@@H](C)C2)c2c(-c3ccnc(N)c3)c[nH]c2n1 [Example 125] Not met

====

# Assayed System: His-TEV-DYRK1A Kinase domain (aa127-485) (Homo sapiens, UniProt Q13627)
# Construct: His-TEV-DYRK1A Kinase domain (aa127-485); His (N); TEV cleavage site (N)
# Protocol: Kinase ADP assay (ADP Hunter Plus)
# Assay type: biochemical
Define the label as label 1 when IC50 is strictly less than 0.2 µM and as label 0 in all remaining cases.

Past entries and their recorded results:
compound=Cc1nc(NCc2cccc3c2OCO3)c2c(-c3ccnc(N)n3)c[nH]c2n1 qualitative_label="label 1"
compound="Cc1nc(N2CCOC(C)C2)c2c(-c3ccnc(N)c3)c[nH]c2n1 (stereo not drawn)" qualitative_label="label 0"
compound=Cc1nc(NCc2ccccn2)c2c(-c3ccnc(N)c3)c[nH]c2n1 qualitative_label="label 1"
compound=Cc1cc(-c2cncc(F)c2)c2c(-c3ccnc(N)c3)c[nH]c2n1 qualitative_label="label 0"
compound=Cc1nc(NCc2cccnc2)c2c(-c3ccnc(N)c3)c[nH]c2n1 qualitative_label="label 0"

Quick check: IC50 of "Cc1nc(NCc2ccc3cc[nH]c3c2)c2c(-c3ccnc(N)c3)c[nH]c2n1" under 0.2 µM? label 1

Try this compound next: "N#Cc1nc(NCc2c(F)cccc2F)c2c(-c3ccnc(N)c3)c[nH]c2n1" label 0

Try this compound next: "Cc1nc(NCc2c(C)noc2C)c2c(-c3ccnc(N)c3)c[nH]c2n1" label 1

Try this compound next: "N#Cc1cc(-c2ccc3c(c2)OCO3)c2c(-c3ccnc(N)c3)c[nH]c2n1" label 1

====

# Assayed System: CDK9 (Homo sapiens)
# Construct: full-length human kinases from Carna Biosciences; purchased Carna Biosciences 04-110
# Sequence (P50750 whole entry): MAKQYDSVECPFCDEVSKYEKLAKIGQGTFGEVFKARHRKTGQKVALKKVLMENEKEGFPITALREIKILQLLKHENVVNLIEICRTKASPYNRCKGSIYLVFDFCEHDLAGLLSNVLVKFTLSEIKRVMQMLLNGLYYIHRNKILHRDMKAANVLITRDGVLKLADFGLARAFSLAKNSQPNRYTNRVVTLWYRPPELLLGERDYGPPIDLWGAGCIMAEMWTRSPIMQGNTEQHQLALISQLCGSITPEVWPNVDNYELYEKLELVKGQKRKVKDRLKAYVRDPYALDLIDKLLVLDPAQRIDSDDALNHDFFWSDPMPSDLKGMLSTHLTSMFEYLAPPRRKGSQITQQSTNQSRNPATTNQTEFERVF
# Sequence (O60563 whole entry partner): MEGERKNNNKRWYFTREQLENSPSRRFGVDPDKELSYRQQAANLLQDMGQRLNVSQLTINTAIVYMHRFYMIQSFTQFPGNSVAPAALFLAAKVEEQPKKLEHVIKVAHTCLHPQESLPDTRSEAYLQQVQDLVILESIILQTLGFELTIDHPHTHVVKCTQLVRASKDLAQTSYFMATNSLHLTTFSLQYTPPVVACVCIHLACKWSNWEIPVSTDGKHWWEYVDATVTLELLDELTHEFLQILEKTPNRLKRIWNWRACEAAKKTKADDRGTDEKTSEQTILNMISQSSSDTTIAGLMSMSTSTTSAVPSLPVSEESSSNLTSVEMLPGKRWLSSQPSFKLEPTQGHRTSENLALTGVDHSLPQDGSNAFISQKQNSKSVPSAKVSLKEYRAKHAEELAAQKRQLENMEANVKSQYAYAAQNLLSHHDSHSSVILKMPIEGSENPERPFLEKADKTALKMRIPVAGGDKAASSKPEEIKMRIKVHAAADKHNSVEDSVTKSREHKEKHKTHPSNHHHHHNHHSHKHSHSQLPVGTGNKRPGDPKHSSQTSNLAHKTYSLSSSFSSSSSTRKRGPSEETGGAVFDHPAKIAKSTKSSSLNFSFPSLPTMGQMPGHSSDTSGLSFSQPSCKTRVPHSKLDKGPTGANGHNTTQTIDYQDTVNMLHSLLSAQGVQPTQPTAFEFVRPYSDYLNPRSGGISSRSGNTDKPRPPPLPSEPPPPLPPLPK
# Protocol: Kinase TR-FRET assay, CDK9
# Assay type: biochemical
Parameter Measured: log10(IC50) (log10 of the value in µM)
Record value = log10 of IC50 given in µM.

These recorded examples may help you get a feel for the data.
compound="Cc1nc(-c2cc3ccccc3s2)c2c(-c3ccnc(N)n3)c[nH]c2n1 [Example 207]" assayed_system="CDK9 (Homo sapiens)" parameter_measured=log10(IC50) meas_value=0.89
compound="Cc1nc(NCc2ccccc2C)c2c(-c3ccnc(N)c3)c[nH]c2n1 [Example 56]" assayed_system="CDK9 (Homo sapiens)" parameter_measured=log10(IC50) meas_value=0.40
compound="COc1nc(C)nc2[nH]cc(-c3ccnc(N)n3)c12 [Example 2]" assayed_system="CDK9 (Homo sapiens)" parameter_measured=log10(IC50) meas_value=0.64

Any idea what its log10(IC50) is? The compound is Cc1nc(NCc2c(C)cccc2F)c2c(-c3ccnc(N)c3)c[nH]c2n1 [Example 70] 0.18

Try this compound next: CC(C)c1nc(NCc2c(F)cccc2F)c2c(-c3ccnc(N)c3)c[nH]c2n1 [Example 150] 0.07

Try this compound next: COc1cccc(F)c1CNc1nc(C)nc2[nH]cc(-c3ccnc(N)c3)c12 [Example 69] -0.19

Try this compound next: COc1ccccc1CNc1nc(C)nc2[nH]cc(-c3ccnc(N)c3)c12 [Example 55] 0.11

Try this compound next: Cc1nc(OCCc2scnc2C)c2c(-c3ccnc(N)c3)c[nH]c2n1 [Example 21] 0.58

Try this compound next: Cc1nc(N2C[C@@H](C)O[C@@H](C)C2)c2c(-c3ccnc(N)c3)c[nH]c2n1 [Example 125] 0.57

Try this compound next: Cc1nc(NCc2ccccc2Cl)c2c(-c3ccnc(N)c3)c[nH]c2n1 [Example 57] 0.91

Try this compound next: Cc1nc(C2=Cc3ccccc3CC2)c2c(-c3ccnc(N)c3)c[nH]c2n1 [Example 187] 1.06

====

Recorded IC50 for the following compounds
# Assayed System: His-TEV-DYRK1A Kinase domain (aa127-485) (Homo sapiens, UniProt Q13627)
# Construct: His-TEV-DYRK1A Kinase domain (aa127-485); His (N); TEV cleavage site (N)
# Protocol: Kinase ADP assay (ADP Hunter Plus)
# Assay type: biochemical
Express the result in µM but write the number alone.

Any idea what its IC50 is? The compound is "Cc1nc(OCc2ccc(C#N)cc2)c2c(-c3ccnc(N)c3)c[nH]c2n1" 0.012

====

# Assayed System: phospho-Ser520-DYRK1A (Homo sapiens)
# Construct: full-length, wild-type human DYRK1A (NM_001396) with an HA tag; expressed in transfected cells; host or cells: human U2-OS osteosarcoma cells, pcDNA3.1 plasmid
# Protocol: Cellular DYRK1A autophosphorylation assay in U2-OS cells
# Assay type: cell-based
# Test Context: 5 hours exposure, read-out: IC50 (μM) P-Ser520-Dyrk1A-Cell assay
Parameter Measured: IC50 (µM)
Express the result in µM but write the number alone.

These recorded examples may help you get a feel for the data.
structure=Cc1ccc2sc(-c3nc(C)nc4[nH]cc(-c5ccnc(N)c5)c34)cc2c1 assayed_system="phospho-Ser520-DYRK1A (Homo sapiens)" parameter_measured=IC50 meas_value=0.0319
structure=Cc1nc(-c2ccccc2)c2c(-c3ccnc(N)c3)c[nH]c2n1 assayed_system="phospho-Ser520-DYRK1A (Homo sapiens)" parameter_measured=IC50 meas_value=0.197
structure=Cc1nc(CN2CCc3ccccc32)c2c(-c3ccnc(N)c3)c[nH]c2n1 assayed_system="phospho-Ser520-DYRK1A (Homo sapiens)" parameter_measured=IC50 meas_value=0.0782

Any idea what its IC50 is? The compound is "Cc1nc(NCc2c(F)cncc2F)c2c(-c3ccnc(N)c3)c[nH]c2n1" 0.232

Try this compound next: "COc1cccc(-c2nc(C)nc3[nH]cc(-c4ccnc(N)c4)c23)c1" 0.0444

Try this compound next: "Nc1cc(-c2c[nH]c3nc(C#CC4CC4)nc(-c4ccc5c(c4)OCO5)c23)ccn1" 0.0146

Values were extracted from patent US20180273538A1.
